A collection of compounds and their measured MIC 24 hr
System: Candida krusei
procedure-summary: Broth microdilution MIC, yeast (Example 13)
Type: cell-based
condition: C. krusei ATCC 6258 (QC, Table 110); 24 hr; comparators, single value
*1 amine or outer side, *2 acyl side, *3 side chain or, on linkers, in order; H or OH if unused. Where a SMILES comes first, the peptide text is derived from it. Bridges are numbered along the chain shown (N, C = ends). [ ]: non-standard residue; d: D form. The star is where a group is joined. hTyr(3S-OH,4S-OH,3'-OSO3H) = N[C@H](C(=O)O)[C@H](O)[C@@H](O)c1ccc(O)c(OS(=O)(=O)O)c1; Orn(4R-OH,5R-OH) = O=C([C@H](C[C@@H](O)[C@@H](O)N[*:3])N[*:1])[*:2]; Pro(3S-OH,4S-Me) = C[C@H]1CN[C@H](C(=O)O)[C@H]1O; X1 = CCCCCOc1ccc(-c2cc(-c3ccc(C(=O)*)cc3)no2)cc1; Gln(3R-OH) = NC(=O)C[C@@H](O)[C@H](N)C(=O)O; Hyp = O=C(O)[C@@H]1C[C@@H](O)CN1

- compound: "C[C@@H](c1ncncc1F)[C@](O)(Cn1cncn1)c1ccc(F)cc1F"
  value-unit: "µg/mL"
  MIC 24 hr: 0.12
- compound: "OC(Cn1cncn1)(Cn1cncn1)c1ccc(F)cc1F [fluconazole, reference compound]"
  value-unit: "µg/mL"
  MIC 24 hr: 16
- compound: "CCCCCOc1ccc(-c2cc(-c3ccc(C(=O)N[C@H]4C[C@@H](O)[C@@H](O)NC(=O)[C@@H]5[C@@H](O)[C@@H](C)CN5C(=O)[C@H]([C@H](O)CC(N)=O)NC(=O)[C@H]([C@H](O)[C@@H](O)c5ccc(O)c(OS(=O)(=O)O)c5)NC(=O)[C@@H]5C[C@@H](O)CN5C(=O)[C@H]([C@@H](C)O)NC4=O)cc3)no2)cc1 [Micafungin] (X1-[Orn(4R-OH,5R-OH)]T[Hyp][hTyr(3S-OH,4S-OH,3'-OSO3H)][Gln(3R-OH)][Pro(3S-OH,4S-Me)]; lactam 1-C)"
  value-unit: "µg/mL"
  MIC 24 hr: 0.5
- compound: "C[C@@H]1[C@H](O)[C@@H](C)/C=C/C=C/C=C/C=C/C=C/C=C/C=C/[C@H](O[C@@H]2O[C@H](C)[C@@H](O)[C@H](N)[C@@H]2O)C[C@@H]2O[C@](O)(C[C@@H](O)C[C@@H](O)[C@H](O)CC[C@@H](O)C[C@@H](O)CC(=O)O[C@H]1C)C[C@H](O)[C@H]2C(=O)O"
  value-unit: "µg/mL"
  MIC 24 hr: 0.5
- compound: "CC[C@H](C)C[C@H](C)CCCCCCCCC(=O)N[C@H]1C[C@@H](O)[C@@H](NCCN)NC(=O)[C@@H]2[C@@H](O)CCN2C(=O)[C@H]([C@H](O)CCN)NC(=O)[C@H]([C@H](O)[C@@H](O)c2ccc(O)cc2)NC(=O)[C@@H]2C[C@@H](O)CN2C(=O)[C@H]([C@@H](C)O)NC1=O"
  value-unit: "µg/mL"
  MIC 24 hr: 0.25

---

Tested on: vancomycin-intermediate Staphylococcus aureus (VISA)
procedure-summary: Broth microdilution MIC (Example 12)
condition: Staphylococcus aureus NRS 22

- compound: "CCCCCCCCCC(=O)NC(Cc1c[nH]c2ccccc12)C(=O)NC(CC(N)=O)C(=O)NC(CC(=O)O)C(=O)NC1C(=O)NCC(=O)NC(CCCN)C(=O)NC(CC(=O)O)C(=O)NC(C)C(=O)NC(CC(=O)O)C(=O)NCC(=O)NC(CO)C(=O)NC(C(C)CC(=O)O)C(=O)NC(CC(=O)c2ccccc2N)C(=O)OC1C (centres unmarked) [DAP]"
  test-target: "vancomycin-intermediate Staphylococcus aureus (VISA)"
  result-modifier: "="
  MIC, µg/mL: 2
- compound: "CCC[C@@H]1C[C@@H](C(=O)N[C@@H]([C@H]2O[C@H](SC)[C@H](O)[C@@H](O)[C@H]2O)[C@H](C)Cl)N(C)C1 [CLI]"
  test-target: "vancomycin-intermediate Staphylococcus aureus (VISA)"
  result-modifier: ">"
  MIC, µg/mL: 8

Sourced from patent US12186283B2
